This section presents compounds with their documented GI50 values.
- Test system: CAKI-1
- protocol_details: NCI tumour cell line growth inhibition, 48 h
Active and inactive are the calls of the source. Cut-off read from the data, not from the text of the source: active = GI50 up to about 1.1 µM and inactive = higher.

{"compound": "CC/C=C/c1cc2c(cc1O)CCC1C2CC[C@@]2(C)C1CC[C@@H]2O (stereo partly specified)", "tested_system": "CAKI-1", "GI50": "0.524 µM (active)"}
{"compound": "OCC(O)COCn1cc(Cn2ncc3c(SCc4ccccc4)ncnc32)nn1 (stereo unspecified)", "tested_system": "CAKI-1", "GI50": "> 100 µM (inactive)"}
{"compound": "O=C(NC(CO)Cc1ccc(Oc2cc(CC(CO)NC(=O)OCc3ccccc3)ccc2OC(=O)OCc2ccccc2)cc1)OCc1ccccc1 (stereo unspecified)", "tested_system": "CAKI-1", "GI50": "26 µM (inactive)"}
{"compound": "NC1CCCCC1.O=P(O)(O)C(O)/C=C/c1ccccc1 (stereo unspecified)", "tested_system": "CAKI-1", "GI50": "> 100 µM (inactive)"}
{"compound": "NCCCCNc1ccc2c(=O)[nH][nH]c(=O)c2c1", "tested_system": "CAKI-1", "GI50": "> 100 µM (inactive)"}
{"compound": "COc1ccccc1/C=C(\\C#N)C(=O)c1ccccc1", "tested_system": "CAKI-1", "GI50": "> 100 µM (inactive)"}

====

- System: Malme-3M
- protocol_details: NCI tumour cell line growth inhibition, 48 h
The source made the active and inactive calls. Cut-off read from the data, not from the text of the source: active = GI50 up to about 1.1 µM and inactive = higher.
Possible outcomes: YES for active, NO for inactive

{"compound": "COc1ccccc1/C=C(\\C#N)C(=O)c1ccccc1", "assigned_category": "NO"}
{"compound": "O=c1[nH]n2c(=O)cc[nH]c2c1-c1nnns1", "assigned_category": "NO"}
{"compound": "Nc1ncc2c(n1)-c1ccccc1OC2N1CCCC1 (configuration not stated)", "assigned_category": "NO"}
{"compound": "C/C(=N\\NC(=O)/C(C#N)=C\\c1ccc(N(CCC#N)CCC#N)cc1)c1ccccc1", "assigned_category": "NO"}
{"compound": "C/C(=N/NC(=S)Nc1ccc(Cl)cc1)c1cccc(/C(C)=N\\NC(=S)Nc2ccc(Cl)cc2)n1", "assigned_category": "NO"}
{"compound": "C=C(C)CC1(O)C(=O)C(OCC)=C1OCC (configuration not stated)", "assigned_category": "NO"}
{"compound": "O=C(O)CCCn1nnc2c(=O)[nH][nH]c(=O)c21", "assigned_category": "NO"}
{"compound": "CO/[N+]([O-])=C\\C(=O)N/C=C/C(=O)O", "assigned_category": "NO"}
{"compound": "O=C1c2scc(-c3ccccc3)c2-n2cccc21", "assigned_category": "NO"}
{"compound": "C[N+](C)([O-])Cc1cc(-c2ccccc2)ccc1O", "assigned_category": "NO"}
{"compound": "CCCCCCCCCCCCCCCCCCNc1ccn(C2OC(COP(=O)(O)OCC3OC(n4cc(F)c(=O)[nH]c4=O)CC3O)C(O)C2O)c(=O)n1 (configuration not stated)", "assigned_category": "YES"}
{"compound": "COc1ccc2oc(=O)c(-c3nc4ccccc4s3)cc2c1", "assigned_category": "NO"}
{"compound": "CCc1c(-c2ccccc2)[nH]c2ccccc2c1=O", "assigned_category": "NO"}
{"compound": "N=C(N)Nc1ccc(CC(N)C(=O)NCC(=O)C(CC(=O)O)c2ncc(NC(=O)C(F)(F)F)o2)cc1 (configuration not stated)", "assigned_category": "NO"}
{"compound": "O=C(Nc1cccc(C(=O)NCCCO)c1)/C(=C/c1ccccc1)NC(=O)c1ccccc1", "assigned_category": "NO"}
{"compound": "COC(=O)NC1(NC(=O)OC)NC(=O)c2ccccc2N1", "assigned_category": "NO"}
{"compound": "CCCn1cc2c3c(cccc31)C1C=C(C)CN(C)C1C2 (configuration not stated)", "assigned_category": "NO"}
{"compound": "N/N=C(/Cc1nc2ccc(C(=O)c3ccccc3)cc2nc1O)C(=O)Nc1ccc([N+](=O)[O-])cc1[N+](=O)[O-]", "assigned_category": "NO"}
{"compound": "COc1ccc(CC2C3=C(CCN2C(=O)C2CCC2)CC2(CC3)OCCO2)cc1O (configuration not stated)", "assigned_category": "NO"}
{"compound": "Cc1cc(O)c(C(C)C)cc1C1(c2cc(C(C)C)c(O)cc2C)OC(=O)c2ccccc21", "assigned_category": "NO"}
{"compound": "O=C(O)COc1cc(-c2ccccc2)nc2ccccc12", "assigned_category": "NO"}
{"compound": "CCOC(=O)NC(OC)(C(F)(F)F)C(F)(F)F", "assigned_category": "NO"}

====

- Test system: OVCAR-5
- protocol_details: NCI tumour cell line growth inhibition, 48 h
Activity calls are given as the source filed them. No stated cut-off is given here; in the data, active = GI50 up to about 1.1 µM and inactive = higher.
List of GI50 values.

{"molecule": "O=C(O)/C(=C\\c1ccncc1)c1cccc2ccccc12", "GI50": "> 100 µM (inactive)"}
{"molecule": "[O-][S+](Nc1ccccc1)c1cccc(Cl)c1 (stereo unspecified)", "GI50": "> 100 µM (inactive)"}
{"molecule": "CCOc1ncn(-c2ccc(NC(=S)NC3OC(CO)C(O)C(O)C3O)cc2)n1 (stereo unspecified)", "GI50": "> 100 µM (inactive)"}
{"molecule": "COc1cc(/C=C/c2ccc(O)c(OC)c2)cc(OC)c1", "GI50": "31.6 µM (inactive)"}
{"molecule": "CCOC(=O)c1ccc(C(=O)/C(C#N)=C2\\CCCN2)n1C", "GI50": "> 100 µM (inactive)"}
{"molecule": "CCOC(=O)c1cc(C)n(CN(CCO)Cn2nc(C(=O)OCC)cc2C)n1", "GI50": "19.5 µM (inactive)"}
{"molecule": "COc1ccc(C(C)NNC(=O)c2cc[n+]([BH2-]C#N)cc2)cc1OC (stereo unspecified)", "GI50": "> 100 µM (inactive)"}
{"molecule": "Clc1ccc2c(NCCCCCCNc3ccnc4cc(Cl)ccc34)ccnc2c1", "GI50": "7.05 µM (inactive)"}
{"molecule": "Nc1nc(Nc2ccc(Cl)cc2)sc1C(=O)c1cc2ccccc2oc1=O", "GI50": "> 100 µM (inactive)"}
{"molecule": "COC(=O)NC1(NC(=O)OC)NC(=O)c2ccccc2N1", "GI50": "> 100 µM (inactive)"}
{"molecule": "NC(=S)N1N=C2c3ccccc3CC[C@H]2[C@@H]1c1cccs1", "GI50": "> 100 µM (inactive)"}

====

- System: XF498
- protocol_details: NCI tumour cell line growth inhibition, 48 h
The source made the active and inactive calls. Cut-off read from the data, not from the text of the source: active = GI50 up to about 1.1 µM and inactive = higher.

{"molecule": "COC[C@@H](Cc1ccc(OC)c(OC)c1)[C@@H](COC)Cc1ccc(OC)c(OC)c1", "tested_system": "XF498", "GI50": "> 100 µM (inactive)"}
{"molecule": "O=C(O)[C@H](NS(=O)(=O)c1ccc([N+](=O)[O-])cc1)c1ccccc1", "tested_system": "XF498", "GI50": "> 100 µM (inactive)"}
{"molecule": "CCC(O)C1Cc2c(C)cc3c(c2O1)C(=O)c1ccccc1C3=O (centres undefined)", "tested_system": "XF498", "GI50": "14.3 µM (inactive)"}
{"molecule": "CC(C)(C)OC(=O)NC1CCCC1=O (centres undefined)", "tested_system": "XF498", "GI50": "> 100 µM (inactive)"}

====

- Tested on: Hs-578T
- protocol_details: NCI tumour cell line growth inhibition, 48 h
Active and inactive are the calls of the source. No stated cut-off is given here; in the data, active = GI50 up to about 1.1 µM and inactive = higher.

{"compound": "CCN(CCCl)CCCCNc1c2ccccc2nc2ccc(OC)cc12", "GI50": "1.22 µM (inactive)"}
{"compound": "CCOC(=O)/C=C(/OCC)[C@@H]1C(C(=O)c2ccc(Cl)cc2)[C@@H]1/C(=C\\C(=O)OCC)OCC (stereo not given in full)", "GI50": "12.9 µM (inactive)"}
{"compound": "CNC(=O)N(C)C(=O)c1ccccc1C(=O)N(C)C(=O)NC", "GI50": "> 10 µM (inactive)"}
{"compound": "COc1ccc(CC2CCc3nc(N)nc(N)c3C2)cc1OC (stereo not given)", "GI50": "> 56.1 µM (inactive)"}
{"compound": "Cc1ncc([N+](=O)[O-])n1CCN(C)C(=O)CCCn1ccnc1[N+](=O)[O-]", "GI50": "> 100 µM (inactive)"}

====

- Tested on: OVCAR-4
- protocol_details: NCI tumour cell line growth inhibition, 48 h
Active and inactive are the calls of the source. Cut-off read from the data, not from the text of the source: active = GI50 up to about 1.1 µM and inactive = higher. *1 amine or outer side, *2 acyl side, *3 side chain or, on linkers, in order; H or OH if unused. Where a SMILES comes first, the peptide text is derived from it. Bridges are numbered along the chain shown (N, C = ends). Roman numbers before positions name the chains, in order. [ ]: non-standard residue; d: D form. Actinocin(9to1) = Cc1c2oc3c(C)ccc(C(=O)[*:1])c3nc-2c(C(=O)[*:2])c(N)c1=O; NMeV = CN[CH](C(=O)O)C(C)C; Sar = CNCC(=O)O
Classes used: active, inactive

{"molecule": "Cc1c2oc3c(C)ccc(C(=O)NC4C(=O)NC(Cc5ccccc5)C(=O)N5CCCC5C(=O)N(C)CC(=O)N(C)C(C(C)C)C(=O)OC4C)c3nc-2c(C(=O)NC2C(=O)NC(Cc3ccccc3)C(=O)N3CCCC3C(=O)N(C)CC(=O)N(C)C(C(C)C)C(=O)OC2C)c(N)c1=O (stereo not given) (I: TFP[Sar][NMeV] / II: TFP[Sar][NMeV]; ester I:1-I:C, II:1-II:C; linker I:N-II:N via Actinocin(9to1); configuration not given here)", "tested_system": "OVCAR-4", "assigned_category": "active"}
{"molecule": "COc1cc2c(cc1O)CCN[C@@]21CS[C@H]2c3c(OC(C)=O)c(C)c4c(c3C(COC1=O)N1C2C2NC(Cc3cc(C)c(OC)c(O)c32)[C@@H]1C#N)OCO4 (stereo not given in full)", "tested_system": "OVCAR-4", "assigned_category": "active"}
{"molecule": "CCCc1nc(N)nc(C(=O)Nc2cccc(C(F)(F)F)c2)c1CC", "tested_system": "OVCAR-4", "assigned_category": "inactive"}
{"molecule": "CCCCCCCCC(=O)NCCN(CCN)C(=O)CCCCCCCC", "tested_system": "OVCAR-4", "assigned_category": "inactive"}
{"molecule": "N/N=C(/Cc1nc2ccc(C(=O)c3ccccc3)cc2nc1O)C(=O)Nc1ccc([N+](=O)[O-])cc1[N+](=O)[O-]", "tested_system": "OVCAR-4", "assigned_category": "inactive"}
{"molecule": "O=C(O)c1ccccc1/C=C1\\Cc2ccc3c(c2C1=O)CCCC3", "tested_system": "OVCAR-4", "assigned_category": "inactive"}
{"molecule": "[N-]=[N+]=CC(=O)OCC1SCCCS1", "tested_system": "OVCAR-4", "assigned_category": "inactive"}
{"molecule": "CCCCC(N)CSSCC(N)CCCC (stereo not given)", "tested_system": "OVCAR-4", "assigned_category": "inactive"}
{"molecule": "NC1C2C(CC(=O)O)OCC=C3CN4CCC1(C(=O)C(=O)O)C4CC32 (stereo not given)", "tested_system": "OVCAR-4", "assigned_category": "inactive"}
{"molecule": "Cc1nn(C)c(=S)n(C)c1=O", "tested_system": "OVCAR-4", "assigned_category": "inactive"}
{"molecule": "O=[N+]([O-])/C=C/c1cc(Cl)c(/C=C/[N+](=O)[O-])cc1Cl", "tested_system": "OVCAR-4", "assigned_category": "inactive"}
{"molecule": "CCOC(=O)/C(=C/c1cn(C(C)=O)c2ccccc12)P(=O)(OC)OC", "tested_system": "OVCAR-4", "assigned_category": "inactive"}
{"molecule": "CN(C)/N=N/c1ccc([N+](=O)[O-])cc1C(N)=O", "tested_system": "OVCAR-4", "assigned_category": "inactive"}
{"molecule": "CCC1(O)CC(OC2CC(N(C)C)C(OC3CC(O)C(OC4CCC(=O)C(C)O4)C(C)O3)C(C)O2)c2c(O)c3c(c(O)c2C1C(=O)OC)C(=O)c1cccc(O)c1C3=O (stereo not given)", "tested_system": "OVCAR-4", "assigned_category": "active"}
{"molecule": "O=c1c2c(nc3n1CCC3)sc1c(O)c(Br)ccc12", "tested_system": "OVCAR-4", "assigned_category": "inactive"}
{"molecule": "CCOC(=O)c1cc(C)n(CN(CCO)Cn2nc(C(=O)OCC)cc2C)n1", "tested_system": "OVCAR-4", "assigned_category": "inactive"}
{"molecule": "N#C/C(=C\\c1c(Cl)cccc1Cl)c1ccccc1", "tested_system": "OVCAR-4", "assigned_category": "inactive"}
{"molecule": "COc1ccc(OC/C(N)=N/NC(=O)c2ccncc2)cc1", "tested_system": "OVCAR-4", "assigned_category": "inactive"}
{"molecule": "CCOC(=O)/C=C(/OCC)[C@@H]1C(C(=O)c2ccc(Cl)cc2)[C@@H]1/C(=C\\C(=O)OCC)OCC (stereo not given in full)", "tested_system": "OVCAR-4", "assigned_category": "inactive"}
{"molecule": "O=C(O)CCCn1nnc2c(=O)[nH][nH]c(=O)c21", "tested_system": "OVCAR-4", "assigned_category": "inactive"}
